All values here come from ChEMBL document CHEMBL1137196.

target: Oxytocin receptor (Homo sapiens)
assayText: Effective concentration for human Oxytocin receptor
pEC50: −log10 of the molar value.
quantity: pEC50

// worked examples, pEC50 included
CO[C@@H]1C[C@@H](C(=S)NCCc2ccccn2)N(C(=O)NCc2ccc(C(=O)N3CCCCc4sccc43)cc2Cl)C1 : 6.33
CO[C@@H]1C[C@@H](C(=S)N2CCC(N3CCCC3)CC2)N(C(=O)NCc2ccc(C(=O)N3CCCCc4sccc43)cc2Cl)C1 : 6.32
CO[C@@H]1C[C@@H](C(=O)NCCc2ccccn2)N(C(=O)NCc2ccc(C(=O)N3CCCCc4sccc43)cc2Cl)C1 : 5.82
CO[C@@H]1C[C@@H](C(=O)N2CCCN(C)CC2)N(C(=O)NCc2ccc(C(=O)N3CCCCc4sccc43)cc2Cl)C1 : 5.55

(a) CO[C@@H]1C[C@@H](C(=O)N2CCC(N3CCCCC3)CC2)N(C(=O)NCc2ccc(C(=O)N3CCCCc4sccc43)cc2Cl)C1
(b) CN1CCCN(C(=S)[C@@H]2CCCN2C(=O)NCc2ccc(C(=O)N3CCCCc4sccc43)cc2Cl)CC1
(c) CO[C@@H]1C[C@@H](C(=S)N2CCCN(C)CC2)N(C(=O)NCc2ccc(C(=O)N3CCCCc4sccc43)cc2Cl)C1
// sort entries: pEC50, high to low I would appreciate it if you listed the labels in the requested order.
c, b, a

---

target: Vasopressin V2 receptor (Homo sapiens)
Sequence (P30518 whole entry): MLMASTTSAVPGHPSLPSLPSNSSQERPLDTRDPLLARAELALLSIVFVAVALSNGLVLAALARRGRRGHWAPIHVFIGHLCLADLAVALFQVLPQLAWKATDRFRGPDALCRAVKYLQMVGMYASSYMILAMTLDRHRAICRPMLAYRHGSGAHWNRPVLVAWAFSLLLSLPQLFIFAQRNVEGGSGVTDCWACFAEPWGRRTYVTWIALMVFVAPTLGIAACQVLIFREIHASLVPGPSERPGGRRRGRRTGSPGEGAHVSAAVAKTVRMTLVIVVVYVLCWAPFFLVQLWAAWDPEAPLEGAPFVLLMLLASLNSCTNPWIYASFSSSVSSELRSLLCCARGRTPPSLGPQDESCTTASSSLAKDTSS
assayText: Effective concentration for human Vasopressin V2 receptor
pEC50: −log10 of the molar value.
quantity: pEC50

CO[C@@H]1C[C@@H](C(=O)NCCN(C)C)N(C(=O)NCc2ccc(C(=O)N3CCCCc4sccc43)cc2Cl)C1 : 5.74

(I) Cc1cc(C(=O)N2Cc3cnn(C)c3Nc3ccccc32)ccc1CNC(=O)N1CCC[C@H]1C(=S)N1CCCN(C)CC1
(II) CO[C@@H]1C[C@@H](C(=S)N2CCCN(C)CC2)N(C(=O)NCc2ccc(C(=O)N3CCCCc4sccc43)cc2Cl)C1
Pick the one with the larger pEC50: I vs II Answer with the label corresponding to your selection.
II
(II: 6.64, I: 6.07)

---

target: Oxytocin receptor (Homo sapiens)
Sequence (P30559 whole entry): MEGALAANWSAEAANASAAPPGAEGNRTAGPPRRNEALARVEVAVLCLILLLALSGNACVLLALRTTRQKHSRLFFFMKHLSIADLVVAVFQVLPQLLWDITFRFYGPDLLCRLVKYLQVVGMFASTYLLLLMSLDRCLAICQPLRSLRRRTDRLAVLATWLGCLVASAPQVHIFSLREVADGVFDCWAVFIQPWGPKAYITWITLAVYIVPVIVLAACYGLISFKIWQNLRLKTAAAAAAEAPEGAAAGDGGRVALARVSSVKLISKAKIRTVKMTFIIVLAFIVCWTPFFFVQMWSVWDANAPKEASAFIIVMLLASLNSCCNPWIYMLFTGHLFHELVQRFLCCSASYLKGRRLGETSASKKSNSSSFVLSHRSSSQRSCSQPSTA
assayText: Effective concentration for human Oxytocin receptor
pEC50: −log10 of the molar value.
quantity: pEC50

CO[C@@H]1C[C@@H](C(=O)N2CCC(N3CCCC3)CC2)N(C(=O)NCc2ccc(C(=O)N3CCCCc4sccc43)cc2Cl)C1 : 5.64

(P) Cc1cc(C(=O)N2CCCCc3sccc32)ccc1CNC(=O)N1CCC[C@H]1C(=S)N1CCCN(C)CC1
(Q) Cc1cc(C(=O)N2Cc3cnn(C)c3Nc3ccccc32)ccc1CNC(=O)N1CCC[C@H]1C(=S)N1CCCN(C)CC1
Pick the one with the larger pEC50: P vs Q Answer with the label corresponding to your selection.
Q
